# assaySystem: T1, human CDH6 on tumor cells (OVCAR3 cells, PA-1 cells) (human, UniProt P55285 54-790)
# T1 sequence: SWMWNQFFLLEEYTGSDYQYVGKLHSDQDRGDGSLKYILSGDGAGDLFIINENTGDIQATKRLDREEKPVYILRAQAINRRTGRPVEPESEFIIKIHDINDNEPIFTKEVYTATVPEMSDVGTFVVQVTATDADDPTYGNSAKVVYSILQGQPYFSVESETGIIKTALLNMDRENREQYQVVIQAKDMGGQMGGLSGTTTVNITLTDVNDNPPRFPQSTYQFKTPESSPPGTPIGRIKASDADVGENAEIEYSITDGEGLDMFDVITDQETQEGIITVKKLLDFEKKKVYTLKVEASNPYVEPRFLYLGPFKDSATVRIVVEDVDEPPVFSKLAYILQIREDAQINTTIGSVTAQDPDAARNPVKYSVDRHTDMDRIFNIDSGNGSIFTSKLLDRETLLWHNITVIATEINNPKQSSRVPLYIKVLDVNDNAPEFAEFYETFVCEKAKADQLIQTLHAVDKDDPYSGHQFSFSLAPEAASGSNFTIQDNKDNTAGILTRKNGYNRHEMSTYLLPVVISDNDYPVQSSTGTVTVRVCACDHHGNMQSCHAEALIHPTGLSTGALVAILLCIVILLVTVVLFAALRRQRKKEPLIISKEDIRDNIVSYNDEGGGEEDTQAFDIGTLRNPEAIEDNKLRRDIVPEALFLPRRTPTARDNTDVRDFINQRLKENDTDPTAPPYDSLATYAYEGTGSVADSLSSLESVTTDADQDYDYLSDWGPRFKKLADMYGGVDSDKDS
# assay: FACS, PA-1 cells
property: Max MFI (MFI)

[
  {
    "binder": "CHI-CDH6-8 (antibody, human IgG1, kappa, V domains shown, also called chimeric antibody of murine CDH6-8) VH: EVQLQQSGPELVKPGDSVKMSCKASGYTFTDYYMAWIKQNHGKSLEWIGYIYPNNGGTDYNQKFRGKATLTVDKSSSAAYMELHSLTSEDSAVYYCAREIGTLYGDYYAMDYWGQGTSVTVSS VL: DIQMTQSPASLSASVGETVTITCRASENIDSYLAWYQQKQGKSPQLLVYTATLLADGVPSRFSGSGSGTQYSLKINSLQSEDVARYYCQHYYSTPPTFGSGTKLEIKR",
    "property": "Max MFI",
    "unitInfo": "MFI",
    "reportedValue": 4710
  },
  {
    "binder": "DS-H01L02 (antibody, human IgG1, kappa, V domains shown, Positive control, variable regions from WO2018212136A1; also called positive control anti-human CDH6 antibody) VH: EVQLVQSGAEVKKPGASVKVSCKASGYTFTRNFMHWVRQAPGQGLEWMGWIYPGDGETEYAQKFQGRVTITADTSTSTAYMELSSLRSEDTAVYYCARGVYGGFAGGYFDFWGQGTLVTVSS VL: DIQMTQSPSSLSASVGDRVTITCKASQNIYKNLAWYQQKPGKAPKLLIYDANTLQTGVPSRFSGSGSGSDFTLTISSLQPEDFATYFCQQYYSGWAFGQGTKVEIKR",
    "property": "Max MFI",
    "unitInfo": "MFI",
    "reportedValue": 1880
  },
  {
    "binder": "CHI-CDH6-2 (antibody, human IgG1, kappa, V domains shown, also called chimeric antibody of murine CDH6-2) VH: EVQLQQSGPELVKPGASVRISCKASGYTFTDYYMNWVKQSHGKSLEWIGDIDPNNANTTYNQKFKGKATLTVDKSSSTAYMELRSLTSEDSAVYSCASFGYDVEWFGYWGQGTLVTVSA VL: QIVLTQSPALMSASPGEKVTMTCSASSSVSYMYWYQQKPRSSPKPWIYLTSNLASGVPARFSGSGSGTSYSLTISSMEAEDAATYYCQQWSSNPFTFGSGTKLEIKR",
    "property": "Max MFI",
    "unitInfo": "MFI",
    "reportedValue": 4760
  }
]
